Values from patent US20230285581A1

- assayed system: human MSR1 extracellular domain expressed with a N-terminal nonahistidine tag (His9-hMSR1; R&D Systems, Cat #2708-MS) (human) (UniProt P21757)
- Sequence (P21757 other isoform, or with tags, fused parts or gaps): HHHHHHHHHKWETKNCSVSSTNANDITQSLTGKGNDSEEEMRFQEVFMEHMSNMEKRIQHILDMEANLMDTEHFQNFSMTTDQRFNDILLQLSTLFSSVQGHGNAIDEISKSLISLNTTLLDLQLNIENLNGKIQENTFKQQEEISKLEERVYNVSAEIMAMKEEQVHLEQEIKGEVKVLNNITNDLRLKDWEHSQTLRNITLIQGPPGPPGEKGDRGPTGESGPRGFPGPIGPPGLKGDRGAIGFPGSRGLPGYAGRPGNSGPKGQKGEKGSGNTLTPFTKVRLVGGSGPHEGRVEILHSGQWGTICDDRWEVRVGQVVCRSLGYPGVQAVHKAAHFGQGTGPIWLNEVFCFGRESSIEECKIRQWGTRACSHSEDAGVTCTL
- assay protocol: competition ELISA; 100 nM antibody, competitor Ac-LDL, plate-coated His9-hMSR1
readout type: % Blocking

* H2aM25695N (antibody, mouse IgG2a, V domains shown) VH: QVQLQESGPGLVKPSETLSLTCTVTGGSISRNYWSWIRQPPGKGLEWIGYIYYSGSINYNPSLKSRVTISVDMSKNQFSLKLNSVTAADTAVYYCARDRWNWKYGMDVWGQGTTVIVSS VL: EIVLTQSPGTLSLSPGERATLSCRASQTVRNSYLAWYHQKPGQAPRLLIYGASSRATGIPDRFSGSGSGTDFTLTISRLEPEDFAVYYCQQYGSSYWTFGQGTKMEIKR | 65%
* H1H27729P-N297Q (antibody, human IgG1, V domains shown) VH: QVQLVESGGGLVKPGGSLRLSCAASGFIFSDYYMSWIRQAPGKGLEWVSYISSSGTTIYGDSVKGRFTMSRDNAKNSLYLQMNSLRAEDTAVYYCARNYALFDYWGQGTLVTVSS VL: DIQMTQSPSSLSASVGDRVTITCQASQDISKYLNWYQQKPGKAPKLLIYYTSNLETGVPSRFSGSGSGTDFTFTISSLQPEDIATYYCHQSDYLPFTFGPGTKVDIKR | 8%
* H1H21234N-N297Q (antibody, human IgG1, V domains shown) VH: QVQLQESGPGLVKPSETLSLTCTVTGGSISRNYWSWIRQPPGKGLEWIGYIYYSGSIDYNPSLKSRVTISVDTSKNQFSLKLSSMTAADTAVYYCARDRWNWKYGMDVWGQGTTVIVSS VL: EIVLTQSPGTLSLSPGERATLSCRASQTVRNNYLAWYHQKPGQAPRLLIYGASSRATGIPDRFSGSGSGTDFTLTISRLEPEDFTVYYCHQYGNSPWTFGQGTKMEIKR | 75%
* H1H21231N-N297Q (antibody, human IgG1, V domains shown) VH: EVQLVESGGGLVQPGGSLRLSCAASGFTFSDHYMDWVRQAPGKGLEWVGRTRNKANSHTTEYTASVTGRFTISRDDSRNSLYLQMNSLKTEDTAVYYCVRAGIIGTLFDYWGQGTLVTVSS VL: DIQMTQFPSSLSASVGDRVTITCRASQSISSFLNWFQQKPGKAPKFLIYAASSLQSGVPSRFSGSGSGTDFTLTISSLQPEDFATYYCQQSYSSPPITFGQGTRLEIKR | -60%
* H1H21231N (antibody, human IgG1, V domains shown) VH: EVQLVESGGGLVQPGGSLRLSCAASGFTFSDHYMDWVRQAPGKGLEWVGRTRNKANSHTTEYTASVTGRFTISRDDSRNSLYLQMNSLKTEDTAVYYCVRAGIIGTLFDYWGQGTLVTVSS VL: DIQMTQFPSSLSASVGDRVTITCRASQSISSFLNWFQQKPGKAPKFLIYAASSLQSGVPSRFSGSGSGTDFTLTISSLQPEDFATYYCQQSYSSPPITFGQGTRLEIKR | -62%
* H1H21234N (antibody, human IgG1, V domains shown) VH: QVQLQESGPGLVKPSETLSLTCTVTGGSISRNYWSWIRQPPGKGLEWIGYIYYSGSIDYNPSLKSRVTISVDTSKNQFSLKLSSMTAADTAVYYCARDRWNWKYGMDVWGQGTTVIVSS VL: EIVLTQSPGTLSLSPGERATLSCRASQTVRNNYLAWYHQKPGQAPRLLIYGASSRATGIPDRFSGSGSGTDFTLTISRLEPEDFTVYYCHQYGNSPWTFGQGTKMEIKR | 70%
